assayTarget: Cellular tumor antigen p53 (Homo sapiens) (UniProt P04637)
Sequence (P04637 whole entry, looked up): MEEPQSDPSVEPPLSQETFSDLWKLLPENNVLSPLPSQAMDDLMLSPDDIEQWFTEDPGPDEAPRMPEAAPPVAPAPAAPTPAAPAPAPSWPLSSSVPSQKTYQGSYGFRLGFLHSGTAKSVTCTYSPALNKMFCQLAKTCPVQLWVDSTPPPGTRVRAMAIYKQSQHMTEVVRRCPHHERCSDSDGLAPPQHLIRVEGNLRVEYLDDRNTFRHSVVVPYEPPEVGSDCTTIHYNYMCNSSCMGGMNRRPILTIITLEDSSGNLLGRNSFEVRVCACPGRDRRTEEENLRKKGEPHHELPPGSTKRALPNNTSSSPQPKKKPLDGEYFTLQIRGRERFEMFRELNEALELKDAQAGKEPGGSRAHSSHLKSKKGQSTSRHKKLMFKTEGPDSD
experimentSummary: Primary qHTS for small molecule compounds that upregulate eGFP-tagged delta133p53alpha (in C-terminal) cells. (AID 2060324)
protocolConditions: NCI-H358 delta133p53alpha-eGFP (C-terminal tag), GFP fluorescence imaging, 24 h; series mostly up to 57.5 µM
Records with an inconclusive call do not appear. Activity calls are given as the source filed them. Calls come from the whole dose curve; as a rule, active = well fitted activation curve with a large enough effect; inconclusive = small, poorly fitted or top-dose-only effect; inactive = flat fitted curve, though single readings scatter.
Give your call using only these classes: True (active), False (inactive)

Outcome? CCN(CC)CCCC(C)Nc1c2ccc(Cl)cc2nc2ccc(OC)cc12 (stereo not drawn)
True

Next:
// return assay outcome for O=C(Nc1ccc2c(c1)CCN(Cc1ncn[nH]1)C2)c1ccccc1-c1ccc(C(F)(F)F)cc1
False

Which outcome did this test record for the compound CC1=C(/C=C/C(C)=C/C=C/C(C)=C\C(=O)O)C(C)(C)CCC1 ?
False

For CCCCCCCCCCCCCCC[C@H](O)[C@H](N)CO , what call appears in the results of this test?
False

Recorded call for C[N+](C)(C)CCOC(N)=O ?
False

Please indicate how the test categorized NNCCc1ccccc1 .
False

====

assayTarget: Retinal dehydrogenase 2 (Homo sapiens)
experimentSummary: qHTS for Inhibitors of the Aldehyde Dehydrogenase Family (ALDH1A2) Confirmation screens (AID 2061314); note: nearly all actives have a fitted effect of over 65% in size
protocolConditions: ALDH1A2 enzyme inhibition qHTS confirmation; series mostly up to 45.9 µM
Inconclusive results are not listed. Calls of active or inactive are those of the source. Calls come from the whole dose curve; as a rule, active = well fitted inhibition curve with a large enough effect; inconclusive = small, poorly fitted or top-dose-only effect; inactive = no such curve, though single readings can be large or run the other way.
Would you mind answering with one of these outcomes? active, inactive

Any idea what this test logged for NC(=O)C1CCN(c2ncc(-c3ccc(Cl)cc3)s2)CC1 ?
inactive

Recorded call for O=C(Nc1ccc(Cl)c(Cl)c1)Nc1ccc(-c2ccncc2)s1 ?
inactive

What is the recorded call for this molecule in the test? NCCCCN(Cc1nc2ccccc2[nH]1)[C@H]1CCCc2cccnc21
inactive

Name the outcome recorded for Cc1cc(O)c2c(c1)C(=O)c1cc(O)cc(O)c1C2=O in the assay.
active

More entries:
Could you kindly confirm the outcome this assay logged for Cc1ccc(CSc2ccc3nnc(CCNS(=O)(=O)c4ccc(C)cc4)n3n2)cc1 ?
inactive

In this assay, the call recorded for C=C[C@H]1[C@H](O[C@@H]2O[C@H](CO)[C@@H](O)[C@H](O)[C@H]2O)OC=C(C(=O)OC)[C@H]1CCOC(=O)c1cc(O)c(O)c(O)c1 was what?
inactive

What is the recorded call for this molecule in the test? Cc1cc(C)c2c(c1)C(N(Cc1cc(C(F)(F)F)cc(C(F)(F)F)c1)c1nnn(C)n1)CCCN2CC1CCC(C(=O)O)CC1 (centres undefined)
active

====

assayTarget: Cellular tumor antigen p53 (Homo sapiens)
experimentSummary: Primary qHTS for small molecule compounds that upregulate eGFP-tagged delta133p53alpha (in N-terminal) cells. (AID 2060322);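 note: cells pre-induced with doxycycline then dosed without doxycycline; 0% = DMSO vehicle and 100% = reference activator; nearly all actives have a fitted effect of over 75% in size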
protocolConditions: NCI-H358 eGFP-delta133p53alpha fluorescence, 24 h; stronger effect = higher value
Results filed as inconclusive are left out. Peptide text beside a SMILES is read from it.
Reported activation values follow for various compounds
Response body: numeric value in %, unit text excluded.

activation for C=CCc1ccc(O[C@@H]2O[C@H](CO[C@@H]3O[C@@H](C)[C@H](O)[C@@H](O)[C@H]3O)[C@@H](O)[C@H](O)[C@H]2O)cc1 ?
3.57

So what does the record say about activation for CC(=O)NC(Cc1ccccc1)C(=O)NC(C(=O)O)C(C)C (stereo not drawn) (Ac-Phe-Val-OH; configuration not given here) ?
0

Look at this compound and give its reported activation. C=C[C@@]1(C)CCC2=C([C@H]1OC(C)=O)[C@H](OC(C)=O)CC1[C@](C)(C(=O)OC)CC[C@H](OC(C)=O)[C@]21C (some centres not stated)
15.2

# activation lookup, item O=C(NCCCCN1CCOCC1)c1cc2ccccc2o1
15.9

Entry under review: Nc1ccc(CCNc2ncnc3c2ncn3C2OC(CO)C(O)C2O)cc1 (configuration not stated) . Reported activation?
-6.89

GET /values?readout=activation&item= Cc1ccc(S(=O)(=O)n2ccc(-c3c(-c4ccc(Cl)cc4)noc3C)n2)cc1
-18.8

Any idea what its activation is? The compound is CCSC(=N)N
-32.7

Fill in the blank: the reported activation of C[C@@H]1C(=O)O[C@H]2[C@H]1CC[C@@]1(C)C(=O)C=C[C@](C)(O)[C@H]21 is ____.
1.79

====

experimentSummary: BET inhibitor-based combinations targeting novel dependencies in MECOM-rearranged (r) AML: OCI-AML3 cell line (AID 2202232); note: nearly all actives have a fitted effect of over 35% in size
protocolConditions: CellTiter-Glo luminescence, 48 h; OCI-AML3 viability; series mostly up to 46 µM
Results filed as inconclusive are left out. Activity calls are given as the source filed them. Calls come from the whole dose curve; as a rule, active = well fitted inhibition curve with a large enough effect; inconclusive = small, poorly fitted or top-dose-only effect; inactive = no such curve, though single readings can be large or run the other way.
Output constraint: value belongs to 1 (active), -1 (inactive)

A selection of reference data follows.
Any idea what this test logged for O=C(O)[C@H](O)[C@@H](O)[C@H](O[C@@H]1O[C@H](CO)[C@H](O)[C@H](O)[C@H]1O)[C@H](O)CO ?
-1

I'd appreciate the recorded outcome for COC(=O)Nc1ccc(-c2nc(N3CCOCC3)c3cnn(C4CCN(C(=O)OC)CC4)c3n2)cc1 from this test.
1

Recorded test call requested for COc1cc2nc(-c3cc(F)ccc3O)nc(N[C@@H]3CNC[C@H]3C(C)(C)O)c2cc1OC
1

Record request — test call for CCNC(=O)[C@H]1O[C@@H](n2cnc3c(N)nc(NCCc4ccc(CCC(=O)O)cc4)nc32)[C@H](O)[C@@H]1O
-1

# input for lookup
Hi, do you know how COc1ccc(-c2ccc3c(N4CCOCC4)nc(N4C[C@@H](C)O[C@@H](C)C4)nc3n2)cc1CO came out in this test?
1

====

experimentSummary: BET inhibitor-based combinations targeting novel dependencies in MECOM-rearranged (r) AML: UCSD-AML1 cell line (AID 2202235); note: nearly all actives have a fitted effect of over 40% in size; note: potency is the fitted concentration of half-maximal effect
protocolConditions: UCSD-AML1 AML cells viability, CellTiter-Glo, 48 h; series mostly up to 46 µM
Protocol: Ecotropic viral insertion site 1 (EVI1) is located on chromosome 3q26.2 as part of the MECOM (MDS and EVI1 complex) locus. […] A collection of 2480 mechanistically annotated dugs (MIPE v5.0) was used to screen four 3q26.2 rearranged AML cell lines and three non-3q26.2 rearranged AML cell lines. […] Cell viability was determined by luminescence based, Cell Titer Glo assay (Promega). […] Luminescence readings were taken using a Viewlux (PerkinElmer) with a 2 s exposure time per plate. […]
Inconclusive results are not listed. Activity calls are given as the source filed them. Calls follow the shape of the dose curve; as a rule, active = well fitted inhibition curve with a large enough effect; inconclusive = small, poorly fitted or top-dose-only effect; inactive = no such curve, though single readings can be large or run the other way. Residues, ends and D or L forms follow the SMILES beside them. *: point of attachment. Cbz = O=C(OCc1ccccc1)*
experimentalReadout: Potency

// solved cases for Potency follow
# lookup: Potency of CC(C)C[C@@H](C=O)NC(=O)[C@H](CC(C)C)NC(=O)[C@H](CC(C)C)NC(=O)OCc1ccccc1 (Cbz-Leu-Leu-Leu-aldehyde)
2950 nM (active)

For the compound shown here, CCN(CC)CCCC(C)Nc1nc(C)cc(Nc2ccc3nc(C)cc(N)c3c2)n1 (centres undefined) , give the reported Potency.
inactive

Name the reported Potency value associated with the compound Cc1nnc(NS(=O)(=O)c2ccc(N)cc2)s1
inactive

# input compound: C#Cc1cccc(Nc2ncnc3cc(OCCOC)c(OCCO)cc23)c1 ; wanted: its Potency
13200 nM (active)

New cases:
What value of Potency has been reported for the following compound? C#CC[C@H](c1nc2cc(Cl)ccc2c(=O)n1Nc1ccccc1)N(CCCN)C(=O)c1cccc(Cl)c1F
1050 nM (active)

I'd like to know its Potency. The compound in question is CS(=O)(=O)N1CCC(NC(=O)c2[nH]ncc2NC(=O)c2c(Cl)cccc2Cl)CC1
1480 nM (active)

Item under review: CC(S)C(=O)NCC(=O)O (centres undefined) . Reported Potency?
inactive

State the recorded Potency for this entry: COc1ccc(-n2c(SCCCN3C(=O)c4cccc5cccc(c45)C3=O)nnc2-c2ccncc2)cc1
inactive

Sample OC[C@H]1OC(O)C[C@@H](O)[C@H]1O (some centres undefined) — what was its Potency?
inactive

For the compound shown here, O=C(Cc1ccc(-c2ccc(OCCN3CCOCC3)cc2)cn1)NCc1ccccc1 , give the reported Potency.
118 nM (active)

Find the recorded Potency belonging to O=C1CCC[C@@H]2[C@H]3CCC[N+]4([O-])CCC[C@@H](CN12)[C@@H]34 (some centres undefined) and report it.
inactive

Any idea what its Potency is? The compound is COc1ccc(C2CNC(=O)C2)cc1OC1CCCC1 (centres undefined)
inactive

====

assayTarget: Cellular tumor antigen p53 (Homo sapiens) (UniProt P04637)
experimentSummary: Primary qHTS for small molecule compounds that upregulate eGFP-tagged delta133p53alpha (in N-terminal) cells. (AID 2060322);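 note: cells pre-induced with doxycycline then dosed without doxycycline; 0% = DMSO vehicle and 100% = reference activator; nearly all actives have a fitted effect of over 75% in size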
protocolConditions: NCI-H358 eGFP-delta133p53alpha fluorescence, 24 h; stronger effect = higher value
Results filed as inconclusive are left out. Calls of active or inactive are those of the source. Calls follow the shape of the dose curve; as a rule, active = well fitted activation curve with a large enough effect; inconclusive = small, poorly fitted or top-dose-only effect; inactive = no such curve, though single readings can be large or run the other way.
# activation per record follows

Quick one: activation for COc1ccc(OC2OC(CO[C@@H]3O[C@@H](C)[C@H](O)[C@@H](O)[C@H]3O)C(O)C(O)C2O)cc1OC (stereo partly drawn) ?
8.4% (inactive)

Give its activation value. Item: C[C@]1(OC(=O)/C=C\c2ccc(O)cc2)C[C@@H](O)[C@]2(O)C=CO[C@@H](O[C@@H]3O[C@H](CO)[C@@H](O)[C@H](O)[C@H]3O)C12 (stereo partly drawn)
23.7% (inactive)

Recorded activation of O=C([C@@H](Cc1cccc(C(F)(F)F)c1)NS(=O)(=O)c1cc(F)c2c(c1)CCNC2)N1CCCC1 , please.
-6.33% (inactive)

For O=C(Nc1cccc2c(=O)cc(-c3nn[nH]n3)oc12)c1ccc(OCCCCc2ccccc2)cc1 , what is its reported activation?
-4.79% (inactive)

More entries:
Field request: activation | item: O=C1NC(=O)C(c2cn3c4c(cccc24)CCC3)C1c1c[nH]c2ccccc12 (stereo not drawn)
18.6% (inactive)

I have this molecule here, CCC(c1ccc(O)cc1)C(CC)c1ccc(O)cc1 (stereo not drawn) , and I need its recorded activation.
3.07% (inactive)

I would be grateful if you could share the reported activation for COC(=O)C1=COC(O[C@@H]2O[C@H](CO)[C@@H](O)[C@H](O)[C@H]2O)/C(=C\COC(=O)/C=C/c2ccccc2)C1CC(=O)OCCc1ccc(O)cc1 (stereo partly drawn) .
-0.763% (inactive)

Field request: activation | item: C=C1C(O)CC2C(C(=O)O)=COC(O[C@@H]3O[C@H](COC(=O)/C=C/c4ccc(O)cc4)[C@@H](O)[C@H](O)[C@H]3O)C12 (stereo partly drawn)
-6.87% (inactive)

State the recorded activation for this entry: C#Cc1cccc(Nc2nc3cc(C(=O)O)ccc3c3cncnc23)c1
8.04% (inactive)
